Tested on: SK-MEL-5
test-method-notes: NCI tumour cell line growth inhibition, 48 h
The source made the active and inactive calls. No stated cut-off is given here; in the data, active = GI50 up to about 1.1 µM and inactive = higher.
property-measured: GI50

>>> reported_measurement("CC1=NN2C=Nc3c(c(-c4ccc(Cl)cc4)cn3-c3ccc(C)cc3)C2N1 (centres undefined)")
"87.9 µM (inactive)"
>>> reported_measurement("O=[N+]([O-])c1ccccc1C1SCc2nc3ccccc3n21 (centres undefined)")
"18.3 µM (inactive)"
>>> reported_measurement("CCOC(=O)/C(C#N)=C/c1ccc2c(c1)CC1(C2)Cc2cc(CC)c(C(C)O)cc2C1 (centres undefined)")
"4.78 µM (inactive)"
>>> reported_measurement("COc1ccc(-c2nnc(CCCCCCCCc3nnc(-c4ccc(OC)cc4)n3N)n2N)cc1")
"> 100 µM (inactive)"
>>> reported_measurement("COc1cc2ccc1OCc1cccc(n1)COc1ccc(cc1OC)/C=N\\CCNCC/N=C\\2")
"> 100 µM (inactive)"
>>> reported_measurement("O=C(NCc1cccnc1)C1COc2cc(-c3cc(=O)c4ccccc4o3)ccc2O1 (centres undefined)")
"26.1 µM (inactive)"
>>> reported_measurement("COc1ccc(NC(=S)NC(=O)c2ccc3c(c2)Sc2ccccc2O3)c([N+](=O)[O-])c1")
"20.6 µM (inactive)"
>>> reported_measurement("COc1ccc(OC)c(NC(=O)CCC/C(CC(=O)c2ccc(O)c(OC)c2)=N\\NC(=O)C[N+](C)(C)C)c1")
"> 100 µM (inactive)"
>>> reported_measurement("CCOP(=O)(OCC)C(C(=O)OC)C(=O)C(=O)Nc1cccc(O)c1 (centres undefined)")
"> 100 µM (inactive)"

----------
# GI50 annotations
Tested on: LOX IMVI
test-method-notes: NCI tumour cell line growth inhibition, 48 h
The source made the active and inactive calls. No stated cut-off is given here; in the data, active = GI50 up to about 1.1 µM and inactive = higher.
property-measured: GI50

>>> reported_measurement("CCNC(=O)c1ccc(C)c(/N=N/N(C)C)c1")
"> 100 µM (inactive)"
>>> reported_measurement("Cc1cc(O)c(C(C)C)cc1/N=C/c1ccccc1O")
"3.13 µM (inactive)"
>>> reported_measurement("O=P1(c2ccccc2)Nc2ccccc2SSc2ccccc2N1")
"16.2 µM (inactive)"
>>> reported_measurement("CC(C)=NNc1snnc1C(N)=O")
"> 100 µM (inactive)"
>>> reported_measurement("Nc1c(-c2ccc(Cl)cc2Cl)[n+]([O-])c2ccccc2[n+]1[O-]")
"> 100 µM (inactive)"
>>> reported_measurement("O=S(=O)(SCCCCSS(=O)(=O)c1ccc(Cl)cc1)c1ccc(Cl)cc1")
"3.39 µM (inactive)"

----------
Tested on: Hs-578T
test-method-notes: NCI tumour cell line growth inhibition, 48 h
Activity calls are given as the source filed them. No stated cut-off is given here; in the data, active = GI50 up to about 1.1 µM and inactive = higher.
Outcome codes: 1 (active), 0 (inactive)

>>> classification("Cc1[nH]n(-c2ncc(C#N)c(=O)[nH]2)c(=O)c1CCO")
0
>>> classification("C[C@@H]1CCC2[C@@H](C)[C@@H](O[C@H]3O[C@@H]4O[C@@]5(C)CCC6[C@H](C)CCC([C@H]3C)[C@]64OO5)O[C@@H]3O[C@@]4(C)CCC1[C@@]23OO4 (stereo not given in full)")
0
>>> classification("Cc1cc(C(C)(C)C)c(OCCCN2CCOCC2)c(C(C)(C)C)c1")
0
>>> classification("Cc1ccc(/N=C2N=C(Cl)/C(=C\\c3ccccc3)N\\2)cc1")
0
>>> classification("NNC(=O)CCc1ccc2ccc3ccccc3c2c1")
0
>>> classification("O=C(O)CNc1ncc2c(n1)-c1ccccc1OC2")
0
>>> classification("CC(=O)c1c2c(c3ccccc3c1O)O[C@@H]1OCC[C@H]21")
0
>>> classification("c1cc(C2=NCCO2)c2ccsc2c1")
0
>>> classification("O=NN(CCCl)C(=O)NC1CCCCC1")
0
>>> classification("CCCCC1Cc2cc(O)ccc2-c2n1c1cc(O)ccc1[n+]2C.CCCCC1Cc2cc(O)ccc2-c2n1c1ccc(O)cc1[n+]2C (stereo not given)")
0
>>> classification("O=c1[nH]nc(-c2ccccc2)c2[nH]c3c4ccccc4ccc3c12")
0
>>> classification("O=C1C=Cc2c1csc2Br")
0
>>> classification("C1C2CC3CC1CC(c1nn4c(C56CC7CC(CC(C7)C5)C6)nnc4s1)(C2)C3")
0
>>> classification("CCCCCC(C/C=N/N(C)C)C(O)(C(F)(F)F)C(F)(F)F (stereo not given)")
0
>>> classification("CCOC(=O)c1c(SC(=O)c2ccc(OC)cc2)n(-c2ccccc2)c(=S)n(-c2ccccc2)c1=O")
0
>>> classification("O=C1C=CC(=O)c2c1ccc1c3ccccc3n(-c3ccccc3[N+](=O)[O-])c21")
0
>>> classification("c1ccc2c3nnc(c2c1)SCCSCCCSCCS3")
0
>>> classification("Cc1cc2c(s1)C(=O)c1sccc1C2=O")
1
>>> classification("Nc1nc(O)c2nc3c(nc2n1)C(=O)N(c1ccc(C(=O)O)cc1)C3")
0
>>> classification("Cc1c2c3cc(O)ccc3nc-2n(C)c2ccccc12")
0
>>> classification("O=C(/C=C/c1ccccc1)N1CCCCC1")
0
>>> classification("N#CC(C#N)/N=N/c1ccc(-c2nc3ccccc3[nH]2)cc1")
0
>>> classification("COc1cccc(N(CN2C(=O)CCC2C(=O)O)C(C)=O)c1 (stereo not given)")
0
>>> classification("CN(C)/C=N\\c1nncc2[nH]nnc12")
0
>>> classification("CCOC(=O)N1CC2(C(=O)OC)C=CC1C(C(=O)OC)C2 (stereo not given)")
0

----------
System: SNB-78
test-method-notes: NCI tumour cell line growth inhibition, 48 h
Calls of active or inactive are those of the source. Rule as the data show it: active = GI50 up to about 1.1 µM and inactive = higher.
property-measured: GI50

>>> reported_measurement("C=CCc1cccc(/C=N\\N/C(N)=N/O)c1O")
"21.5 µM (inactive)"
>>> reported_measurement("O=C(Nc1ccc(Br)cc1)C(=O)C(C(=O)c1ccccc1F)C1OC(=O)c2ccccc21 (stereo not drawn)")
"27.8 µM (inactive)"
>>> reported_measurement("OCC(O)CNc1ccnc2cc(Cl)ccc12 (stereo not drawn)")
"> 100 µM (inactive)"
>>> reported_measurement("COc1cc(C2c3cc4c(cc3[C@H](OCCN(C)C)[C@@H]3COC(=O)C23)OCO4)cc(OC)c1O (stereo partly drawn)")
"3.83 µM (inactive)"
>>> reported_measurement("CN1C(=O)N(C)C2(O)c3ccccc3C(=O)C12O (stereo not drawn)")
"> 100 µM (inactive)"
>>> reported_measurement("C#Cc1cccc(N2C(=O)CC(=P(c3ccccc3)(c3ccccc3)c3ccccc3)C2=O)c1")
"> 100 µM (inactive)"
>>> reported_measurement("CN(C)c1nc(N(C)C)nc(N(C)C)n1")
"> 150 µM (inactive)"
>>> reported_measurement("C=CCC(O[Si](C)(C)C(C)(C)C)c1cc(O[Si](C)(C)C(C)(C)C)ccc1OC (stereo not drawn)")
"> 49.2 µM (inactive)"

----------
Tested on: COLO 205
test-method-notes: NCI tumour cell line growth inhibition, 48 h
Activity calls are given as the source filed them. No stated cut-off is given here; in the data, active = GI50 up to about 1.1 µM and inactive = higher.
Outcome codes: active, inactive

>>> classification("CC(=O)OCC1OC(Nn2c(=O)[nH]c3ccccc3c2=O)C(OC(C)=O)C(OC(C)=O)C1OC(C)=O (centres undefined)")
"inactive"
>>> classification("c1ccc(COC[C@H]2O[C@@H](c3ccccc3)C[C@@H](OCc3ccccc3)C2OCc2ccccc2)cc1 (some centres undefined)")
"inactive"
>>> classification("CCN(CC)CCNc1ccc2ncn3c4cc(OC)c(OC)c(O)c4c(=O)c1c23")
"inactive"
>>> classification("OCCCNc1ccnc2cc(Cl)ccc12")
"inactive"
>>> classification("Cc1cc(NS(=O)(=O)c2ccc(Nc3c4ccccc4nc4c(C(=O)Nc5ccc(S(=O)(=O)N=C(N)N)cc5)ccc(Cl)c34)cc2)no1")
"inactive"
>>> classification("CC(=O)O[C@H]1C(=O)[C@@]2(C)C([C@H](OC(=O)c3ccccc3)[C@]3(O)C[C@H](OC(=O)[C@H](O)[C@@H](NC(=O)c4ccc(Cl)cc4)c4ccccc4)C(C)=C1C3(C)C)C1(OC(C)=O)CO[C@@H]1C[C@@H]2O (some centres undefined)")
"active"
>>> classification("N#CCCn1c(S)nnc1CCC(=O)Nc1ccc(Cl)cc1Cl")
"inactive"
>>> classification("Nc1ccc2nc(-c3cccc(C(F)(F)F)c3)cc(O)c2c1")
"inactive"
>>> classification("COc1cc(CCCOC2OC(COC3OCC(O)C(O)C3O)C(O)C(O)C2O)cc2cc(-c3ccc4c(c3)OCO4)oc12 (centres undefined)")
"inactive"
>>> classification("OC(Cc1cccc2ccccc12)CN1CCC(c2ccccc2)CC1 (centres undefined)")
"inactive"
>>> classification("NC(CCCCCCCCCCP(=O)(O)O)C(=O)O (centres undefined)")
"inactive"
>>> classification("FC(F)(F)c1ccc(C2ON=C(c3ccccc3)N2C23CC4CC(CC(C4)C2)C3)cc1 (centres undefined)")
"inactive"
>>> classification("Cc1ccc(-c2cc(-c3ccco3)c(C#N)c(O)n2)cc1")
"inactive"
>>> classification("C[Si](C)(C)OC1c2[nH]c3ccccc3c2CN2C(=O)CCC12 (centres undefined)")
"inactive"
>>> classification("COc1ccc(-c2c(C(C)=O)c(-c3ccccc3)n(C3OC(CO)C(O)C(O)C3O)c(=S)c2C#N)cc1 (centres undefined)")
"inactive"
>>> classification("CC(C)CCCC(C)C1CCC2C3CC([N+](=O)[O-])=C4CC(O)CCC4(C)C3CCC12C (centres undefined)")
"inactive"
>>> classification("CC(C)NC(=O)CN1CCN(C2=C(Cl)C(=O)c3c(O)ccc(O)c3C2=O)CC1")
"inactive"
>>> classification("CC(c1ccccc1)n1cncc1C(=O)NN1CCN(C)CC1 (centres undefined)")
"inactive"
>>> classification("CN1C(=O)N(C)C2(O)c3ccccc3C(=O)C12O (centres undefined)")
"inactive"
